Molecular target: Mot3 (UniProt P54785)
Sequence: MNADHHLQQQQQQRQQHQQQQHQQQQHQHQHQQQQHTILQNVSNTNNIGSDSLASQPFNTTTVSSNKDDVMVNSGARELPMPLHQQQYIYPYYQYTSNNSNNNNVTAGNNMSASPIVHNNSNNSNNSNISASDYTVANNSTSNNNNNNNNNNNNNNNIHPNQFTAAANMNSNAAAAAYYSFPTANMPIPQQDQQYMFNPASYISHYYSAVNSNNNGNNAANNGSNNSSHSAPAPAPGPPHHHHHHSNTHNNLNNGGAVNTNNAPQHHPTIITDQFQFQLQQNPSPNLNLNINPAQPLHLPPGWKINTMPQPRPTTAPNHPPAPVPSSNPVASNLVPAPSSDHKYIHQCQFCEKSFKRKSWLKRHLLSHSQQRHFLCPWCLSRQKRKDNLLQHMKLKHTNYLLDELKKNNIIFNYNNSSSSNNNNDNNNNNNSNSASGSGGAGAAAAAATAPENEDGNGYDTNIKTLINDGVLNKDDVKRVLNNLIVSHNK
Test: PBM E-score (8-mer binding enrichment) (E-score (-0.5 to 0.5)); higher = stronger / more preferred TF binding
Conditions: protein concentration: 200 nM; construct: GST-full length
Over roughly 33,000 sequences, “E-score (-0.5 to 0.5)” has its median near -0.035; the highest 2% begin near 0.34. The list comes from a sample in which the highest values are over-represented; it also holds close analogues and randomly drawn sequences.
reported-metric: PBM E-score

> print(dat)
         seq       target.or.system  recorded.number
 1  ACCAGTAG  Mot3 (UniProt P54785)          -0.0459
 2  CGCGCTGC  Mot3 (UniProt P54785)          -0.0871
 3  CTGTGTAA  Mot3 (UniProt P54785)             0.41
 4  ATACACAT  Mot3 (UniProt P54785)              0.3
 5  GACATGTC  Mot3 (UniProt P54785)            0.191
 6  GTGTGTAA  Mot3 (UniProt P54785)            0.394
 7  CTGTATAA  Mot3 (UniProt P54785)           0.0988
 8  ACGTCGCC  Mot3 (UniProt P54785)         -0.00307
 9  TACAGGTA  Mot3 (UniProt P54785)            0.393
10  GCTACCAC  Mot3 (UniProt P54785)           -0.216
11  GAGTGTAA  Mot3 (UniProt P54785)            0.249
12  AGTAGAAG  Mot3 (UniProt P54785)           0.0882
13  AGCACAAG  Mot3 (UniProt P54785)           0.0406
14  CTTCCTAA  Mot3 (UniProt P54785)           0.0478
15  TAAATGTA  Mot3 (UniProt P54785)            0.346
16  AACAGGTA  Mot3 (UniProt P54785)            0.269
17  TAGCGGAA  Mot3 (UniProt P54785)            -0.15
18  CTTCCTTA  Mot3 (UniProt P54785)            0.146
19  GGGGTCTA  Mot3 (UniProt P54785)          -0.0481
20  GGGTGTAA  Mot3 (UniProt P54785)            0.223
21  GTTCCTTA  Mot3 (UniProt P54785)            0.428
22  CAAATGTA  Mot3 (UniProt P54785)            0.272
23  AGAATGGA  Mot3 (UniProt P54785)          -0.0583
24  AGTTAGGA  Mot3 (UniProt P54785)            0.108
25  AACACTGG  Mot3 (UniProt P54785)          0.00047
26  ATATGACG  Mot3 (UniProt P54785)           0.0195
27  CACAGGTG  Mot3 (UniProt P54785)           0.0773
28  CTTCCTGA  Mot3 (UniProt P54785)          -0.0128
29  ACAACGAT  Mot3 (UniProt P54785)            0.155
30  ATGCTGCC  Mot3 (UniProt P54785)          -0.0402

----------
Target: Mot3 (UniProt P54785)
Sequence: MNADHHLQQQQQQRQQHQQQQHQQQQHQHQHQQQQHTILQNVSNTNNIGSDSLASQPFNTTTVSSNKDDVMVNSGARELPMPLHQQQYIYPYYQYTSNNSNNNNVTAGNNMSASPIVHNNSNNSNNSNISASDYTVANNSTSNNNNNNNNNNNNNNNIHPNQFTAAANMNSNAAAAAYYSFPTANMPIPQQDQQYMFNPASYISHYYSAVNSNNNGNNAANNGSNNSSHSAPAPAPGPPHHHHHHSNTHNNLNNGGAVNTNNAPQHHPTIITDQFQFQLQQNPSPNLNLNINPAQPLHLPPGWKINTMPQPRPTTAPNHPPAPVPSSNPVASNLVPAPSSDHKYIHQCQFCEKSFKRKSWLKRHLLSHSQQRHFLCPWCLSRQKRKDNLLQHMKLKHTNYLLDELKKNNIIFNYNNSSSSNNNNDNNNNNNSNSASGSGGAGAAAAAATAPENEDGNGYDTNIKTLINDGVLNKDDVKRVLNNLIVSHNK
Test: PBM E-score (8-mer binding enrichment) (E-score (-0.5 to 0.5)); higher = stronger / more preferred TF binding
Settings: protein concentration: 200 nM; construct: GST-full length
In all, about 33,000 sequences were measured (“E-score (-0.5 to 0.5)”: median about -0.035, highest 2% from about 0.34 on). The list comes from a sample in which the highest values are over-represented; it also holds close analogues and randomly drawn sequences.
Categories are defined by ranges of PBM E-score, namely low: < -0.2; moderate: ≥ -0.2 and < 0.1; high: ≥ 0.1

> print(dat)
         seq     group
 1  CCTAGGCC  moderate
 2  AGAAGAGA  moderate
 3  CTACATCA      high
 4  TCTAGGCA      high
 5  CCGAATTC       low
 6  CGGGGACC  moderate
 7  ACTAGGCG      high
 8  CCTAGGCA      high
 9  GGGCTAAA  moderate
10  GCTAGGCC       low

----------
Recorded PBM E-score, one value per entry.
Molecular target: Mot3 (UniProt P54785)
Sequence: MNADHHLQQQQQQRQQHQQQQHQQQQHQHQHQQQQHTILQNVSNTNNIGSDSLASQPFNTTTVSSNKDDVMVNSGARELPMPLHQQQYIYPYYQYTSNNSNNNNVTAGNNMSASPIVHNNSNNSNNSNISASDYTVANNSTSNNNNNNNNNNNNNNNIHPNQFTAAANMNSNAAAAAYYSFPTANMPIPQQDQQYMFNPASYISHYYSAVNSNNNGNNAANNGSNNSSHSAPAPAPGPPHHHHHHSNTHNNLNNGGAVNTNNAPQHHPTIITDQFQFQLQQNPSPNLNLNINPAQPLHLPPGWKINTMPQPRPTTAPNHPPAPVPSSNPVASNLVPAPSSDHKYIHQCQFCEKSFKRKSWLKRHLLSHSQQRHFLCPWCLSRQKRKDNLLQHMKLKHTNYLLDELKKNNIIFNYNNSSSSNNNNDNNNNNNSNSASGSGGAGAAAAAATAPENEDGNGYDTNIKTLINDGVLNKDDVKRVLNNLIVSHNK
Assay: PBM E-score (8-mer binding enrichment) (E-score (-0.5 to 0.5)); higher = stronger / more preferred TF binding
Conditions: protein concentration: 200 nM; construct: GST-full length
The full ranking holds about 33,000 sequences; the median of “E-score (-0.5 to 0.5)” is about -0.035, and the highest 2% start at about 0.34. What follows is part of a selection rich in the highest values, with near analogues and random picks from the rest.
reported-metric: PBM E-score

> print(dat)
         seq       target.or.system    result
 1  CAAGCAGC  Mot3 (UniProt P54785)   -0.0458
 2  ATACATCA  Mot3 (UniProt P54785)      0.16
 3  GGGAAGCA  Mot3 (UniProt P54785)    -0.178
 4  ATCAACAG  Mot3 (UniProt P54785)    0.0788
 5  AAGTGCTC  Mot3 (UniProt P54785)    -0.203
 6  GTGAGGCA  Mot3 (UniProt P54785)     0.353
 7  GCAGGTAC  Mot3 (UniProt P54785)     0.452
 8  AGGAGGGG  Mot3 (UniProt P54785)    -0.156
 9  GCCTTGCA  Mot3 (UniProt P54785)  -0.00236
10  ACAGGTAT  Mot3 (UniProt P54785)     0.194
11  CGGAACCC  Mot3 (UniProt P54785)   -0.0527
12  CCGATCAC  Mot3 (UniProt P54785)   -0.0956
13  AGGAACCG  Mot3 (UniProt P54785)     0.442
14  ACCAGCCA  Mot3 (UniProt P54785)    -0.131
15  AGACAGAT  Mot3 (UniProt P54785)   -0.0373
16  CCGGTGCG  Mot3 (UniProt P54785)   -0.0852
17  CTTGAAAG  Mot3 (UniProt P54785)    0.0362
18  CAAGTAGG  Mot3 (UniProt P54785)     0.105
19  GCAGGTAA  Mot3 (UniProt P54785)     0.385
20  CGACATAA  Mot3 (UniProt P54785)    0.0835
21  AAGCTATA  Mot3 (UniProt P54785)  -0.00123
22  GGTAGAGA  Mot3 (UniProt P54785)    -0.198
23  AGTGGGAT  Mot3 (UniProt P54785)   -0.0984
24  GACAGCCA  Mot3 (UniProt P54785)    -0.186
25  ATGAGGCA  Mot3 (UniProt P54785)     0.364
26  AGTCAGTG  Mot3 (UniProt P54785)    -0.157
27  GGGAACAC  Mot3 (UniProt P54785)    0.0104
28  GTATTCCA  Mot3 (UniProt P54785)    0.0481
29  AATTGCCG  Mot3 (UniProt P54785)    -0.145
30  AAACTTCG  Mot3 (UniProt P54785)    0.0118
31  AGACATGA  Mot3 (UniProt P54785)     0.198
32  ACCATTAA  Mot3 (UniProt P54785)    0.0184
33  ACTTGCCT  Mot3 (UniProt P54785)     0.479
34  AGGAACCA  Mot3 (UniProt P54785)     0.419
35  CTGAGGCA  Mot3 (UniProt P54785)     0.257
36  CTACATGA  Mot3 (UniProt P54785)     0.361
37  GTCGAACA  Mot3 (UniProt P54785)    0.0718
38  CAAGGAAC  Mot3 (UniProt P54785)      0.43
39  CCAGGTAA  Mot3 (UniProt P54785)     0.238
40  AAGAACCT  Mot3 (UniProt P54785)     0.191
41  GAAAAGGC  Mot3 (UniProt P54785)     0.228
42  AAAGCGTA  Mot3 (UniProt P54785)    0.0441
43  GCCTTGTA  Mot3 (UniProt P54785)     0.354
44  GAAGGAAC  Mot3 (UniProt P54785)     0.468
45  AGTGTAGA  Mot3 (UniProt P54785)     0.151
46  GCAGGTCC  Mot3 (UniProt P54785)    -0.168
47  GATCTAGC  Mot3 (UniProt P54785)    -0.194
48  CTAGAACC  Mot3 (UniProt P54785)   -0.0352
49  ACCGACCC  Mot3 (UniProt P54785)    -0.256
50  ACATCTTA  Mot3 (UniProt P54785)    0.0996
51  CAAGGAAG  Mot3 (UniProt P54785)  -0.00272
52  CGGAACCG  Mot3 (UniProt P54785)    -0.249
53  CGGAACAC  Mot3 (UniProt P54785)    0.0144
54  CATGTAGC  Mot3 (UniProt P54785)     0.276
55  AAAGGATA  Mot3 (UniProt P54785)   -0.0444
56  AAAGGAAC  Mot3 (UniProt P54785)     0.456
57  GCCTTGCC  Mot3 (UniProt P54785)     0.416
58  GTTAGCCA  Mot3 (UniProt P54785)    -0.136
59  ACGAACCT  Mot3 (UniProt P54785)   -0.0403
60  CGAGGAAC  Mot3 (UniProt P54785)     0.285
61  ATCAACAT  Mot3 (UniProt P54785)     0.339
62  CCCTTGCC  Mot3 (UniProt P54785)    0.0298
63  ACTAGGGG  Mot3 (UniProt P54785)    -0.223
64  GACTGGTA  Mot3 (UniProt P54785)  -0.00685
65  CGTGTAGA  Mot3 (UniProt P54785)     0.414
66  AGGAACCC  Mot3 (UniProt P54785)     0.444
67  ATTAACAA  Mot3 (UniProt P54785)     0.328
68  CATGTAGA  Mot3 (UniProt P54785)      0.39
69  AAGCAGTG  Mot3 (UniProt P54785)    0.0592
70  CCCTTGTA  Mot3 (UniProt P54785)     0.237
71  GTGAGGAA  Mot3 (UniProt P54785)    -0.106
72  CATGTATC  Mot3 (UniProt P54785)     0.277
73  ATGAGGCC  Mot3 (UniProt P54785)    -0.174
74  AATGTAGG  Mot3 (UniProt P54785)     0.191

Taken from the supplement of paper PMC3334620.
